Provenance of the data: patent US10450314B2

Recorded HLM (% Qh) values for a group of compounds are listed next.
Experiment: Human liver microsome (HLM) metabolic stability assay
Assay type: in vitro ADME
Settings: human liver microsomes, 1 uM compound, 37° C., 60 min; % hepatic blood flow

A selection of reference data follows.
COc1ncnc(C2CC2)c1-c1nc(C)c2nc(NCc3ccc(S(C)(=N)=O)cc3)c(=O)n([C@@H](C)C(F)(F)F)c2n1 (single isomer, unassigned) [Example 99a]: 41 % Qh
CCS(=O)(=O)c1ccc(CNc2nc3c(C)nc(-c4c(OC)ncnc4C4CC4)nc3n([C@@H](C)C(F)(F)F)c2=O)nc1: 38 % Qh

If you can, please state the reported HLM (% Qh) value of `CC[C@H](C)n1c(=O)c(NCc2ccc(S(=O)(=O)CC)nc2)nc2c(C)nc(-c3c(C)ncnc3C3CC3)nc21` . <24 % Qh

If you can, please state the reported HLM (% Qh) value of `Cc1ncnc(C2CC2)c1-c1nc(C)c2nc(NCc3cnc(S(C)(=O)=O)cn3)c(=O)n([C@@H](C)C(F)(F)F)c2n1` . <24 % Qh

If you can, please state the reported HLM (% Qh) value of `CC[C@@H](C)n1c(=O)c(NCc2cnc(S(C)(=O)=O)cn2)nc2c(C)nc(-c3c(C)ncnc3C3CC3)nc21` . <24 % Qh

If you can, please state the reported HLM (% Qh) value of `CCS(=O)(=O)c1cnc(CNc2nc3c(C)nc(-c4c(OC)ncnc4C4CC4)nc3n([C@@H](C)C(F)(F)F)c2=O)nc1` . <24 % Qh

###

Biological target: RORγ (Homo sapiens)
Construct: expressed in transfected cells; host or cells: HEK 293 cells, transiently cotransfected with pGL4.3 luc2P/GAL4UAS/Hygro reporter
Sequence (P51449 269-508 limits assumed): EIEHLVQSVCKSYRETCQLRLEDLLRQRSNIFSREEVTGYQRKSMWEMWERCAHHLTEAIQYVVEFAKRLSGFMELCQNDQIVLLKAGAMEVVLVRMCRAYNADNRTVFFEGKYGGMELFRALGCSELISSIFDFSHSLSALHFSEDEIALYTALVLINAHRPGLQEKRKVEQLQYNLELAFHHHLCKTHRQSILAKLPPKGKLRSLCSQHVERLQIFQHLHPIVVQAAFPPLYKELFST
Assay: RORγ Reporter Gene Assay (RGA), luciferase transactivation in transiently transfected HEK 293 cells
Format: cell-based
Details: HEK 293 cells cotransfected with pGL4.3 luc2P/GAL4UAS and pBIND Gal4DBD hRORC LBD; 20-24 h incubation
pIC50: −log10 of the molar value.
metric.name: pIC50

I: CCS(=O)(=O)c1ccc(CNc2nc3c(C)nc(-c4c(OC)ncnc4C4CC4)nc3n(C(C)C)c2=O)nc1 [Example 77]
II: Cc1ncnc(C2CC2)c1-c1nc(C)c2nc(NCc3ccc(S(C)(=N)=O)cn3)c(=O)n([C@@H](C)C(F)(F)F)c2n1 (single isomer, unassigned) [Example 106a]
III: CC[C@H](C)n1c(=O)c(NCc2ccc(S(=O)(=O)CC)cn2)nc2c(C)nc(-c3c(OC)ncnc3C3CC3)nc21 [Example 58]
Please rank the 3 items above; order by pIC50, the highest number leading. Answer format: the labels, ordered as requested. III, I, II
(III: 7.15, I: 6.17, II: 5.89)

###

Test: Human liver microsome (HLM) metabolic stability assay
Assay type: in vitro ADME
Conditions: human liver microsomes, 1 uM compound, 37° C., 60 min; % hepatic blood flow
metric.name: HLM (% Qh)

COc1ncnc(C2CC2)c1-c1nc(C)c2nc(NCc3ccc(S(C)(=N)=O)cc3)c(=O)n([C@@H](C)C3CC3)c2n1 (stereo partly drawn): <24 % Qh
CCS(=N)(=O)c1ccc(CNc2nc3c(C)nc(-c4c(C)ncnc4C4CC4)nc3n([C@@H](C)C(F)(F)F)c2=O)nc1 (single isomer, unassigned) [Example 102a]: <24 % Qh
CC[C@@H](C)n1c(=O)c(NCc2ccc(S(=O)(=O)CC)cn2)nc2c(CF)nc(-c3c(C)ncnc3C3CC3)nc21: 33 % Qh
CC[C@@H](C)n1c(=O)c(NCc2ccc(S(=O)(=O)CC)cn2)nc2c(C)nc(-c3c(OC)ncnc3C3CC3)nc21: <24 % Qh
CC[C@H](C)n1c(=O)c(NCc2ncc(S(=O)(=O)CC)cn2)nc2c(C)nc(-c3c(C)ncnc3C3CC3)nc21: <24 % Qh

Now let's try a different one.
If you can, please state the reported HLM (% Qh) value of CCS(=N)(=O)c1ccc(CNc2nc3c(C)nc(-c4c(OC)ncnc4C4CC4)nc3n([C@@H](C)C(F)(F)F)c2=O)nc1 (single isomer, unassigned) [Example 101b] . <24 % Qh
